Taken from the supplement of paper PMC3334620.

- targetOrSystem: Stb4 (UniProt P50104)
- Sequence (P50104 whole entry): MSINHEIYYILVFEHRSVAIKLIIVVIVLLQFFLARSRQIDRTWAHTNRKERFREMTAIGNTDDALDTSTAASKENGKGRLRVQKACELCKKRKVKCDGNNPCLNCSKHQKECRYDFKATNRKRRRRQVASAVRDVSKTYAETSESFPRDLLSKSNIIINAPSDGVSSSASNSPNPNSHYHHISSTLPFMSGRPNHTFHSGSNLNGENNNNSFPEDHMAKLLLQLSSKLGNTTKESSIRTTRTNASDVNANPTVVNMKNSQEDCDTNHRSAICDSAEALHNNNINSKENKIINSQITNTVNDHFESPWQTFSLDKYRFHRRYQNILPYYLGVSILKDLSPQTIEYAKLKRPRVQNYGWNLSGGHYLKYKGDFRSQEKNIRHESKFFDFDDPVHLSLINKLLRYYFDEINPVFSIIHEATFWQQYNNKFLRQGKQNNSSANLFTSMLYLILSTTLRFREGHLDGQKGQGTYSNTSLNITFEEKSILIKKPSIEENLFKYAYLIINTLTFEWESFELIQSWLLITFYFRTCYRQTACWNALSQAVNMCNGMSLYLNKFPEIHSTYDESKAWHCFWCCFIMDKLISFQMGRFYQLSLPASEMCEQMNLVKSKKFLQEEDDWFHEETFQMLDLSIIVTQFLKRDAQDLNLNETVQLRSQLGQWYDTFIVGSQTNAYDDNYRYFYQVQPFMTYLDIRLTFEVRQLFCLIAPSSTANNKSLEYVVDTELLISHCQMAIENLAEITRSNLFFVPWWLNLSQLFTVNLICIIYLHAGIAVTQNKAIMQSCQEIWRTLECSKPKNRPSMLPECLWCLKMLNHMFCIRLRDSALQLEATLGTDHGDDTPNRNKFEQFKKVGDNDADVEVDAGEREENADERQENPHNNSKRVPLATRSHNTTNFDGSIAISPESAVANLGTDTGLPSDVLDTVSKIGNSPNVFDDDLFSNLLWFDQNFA
- testMethodNotes: PBM E-score (8-mer binding enrichment) (E-score (-0.5 to 0.5)); higher = stronger / more preferred TF binding
- conditionDescription: protein concentration: 200 nM; construct: GST-DNA-binding domain
Over roughly 33,000 sequences, “E-score (-0.5 to 0.5)” has its median near -0.056; the highest 2% begin near 0.38. This excerpt belongs to a sample that is enriched for the highest values.
The entries below are paired with their reported PBM E-score.
Please give the numeric answer without any surrounding text.

• CGCGGATA = 0.4
• CGAGAGTC = 0.0872
• CATCAACC = 0.00345
• GTCGAGGA = -0.239
• ACTCATTG = -0.0916
• GAGTCCCC = -0.0682
• TCAGAGGA = -0.183
• AACAATGT = -0.0925

Checklist item: PBM E-score tested on Stb4 (UniProt P50104), entry TCCGAAAA , value?
0.441

Checklist item: PBM E-score tested on Stb4 (UniProt P50104), entry CACGAAAA , value?
-0.0798

Checklist item: PBM E-score tested on Stb4 (UniProt P50104), entry GTTCGGAA , value?
0.474

Checklist item: PBM E-score tested on Stb4 (UniProt P50104), entry AACCCTCA , value?
-0.148

Checklist item: PBM E-score tested on Stb4 (UniProt P50104), entry GCCATTCC , value?
0.127

Checklist item: PBM E-score tested on Stb4 (UniProt P50104), entry CAGGATCG , value?
0.0947

Checklist item: PBM E-score tested on Stb4 (UniProt P50104), entry ACCGAGGA , value?
0.323
